# EXPERIMENTAL_SYSTEM: T1, cynomolgus MSLN on transfected 293 cells (cynomolgus)
# T1 construct: whole, on cells; also called cyno MSLN; cynomolgus mesothelin
# MEASUREMENT_PROTOCOL: flow cytometry on 293 cells transiently transfected with cyno MSLN, anti-huIgG1-PE, MFI (Geo Mean)
REPORTED_METRIC: EC50 (read off the curve)

// solved cases for EC50 (read off the curve) follow
Antibody 56 (VH1-e CDRgraft G55A / VKI-L12) (antibody, V domains shown) VH: QVQLVQSGAEVKKPGSSVKVSCKASGGTFSGYTMNWVRQAPGQGLEWMGLITPYNAASSYNQKFRGRVTITADKSTSTAYMELSSLRSEDTAVYYCARGGYDGRGFDYWGQGTTVTVSS VL: DIQMTQSPSTLSASVGDRVTITCSASSSVSYMHWYQQKPGKAPKLLIYDTSKLASGVPSRFSGSGSGTEFTLTISSLQPDDFATYYCQQWSKHPLTFGGGTKVEIK    ~0.1 nM
56-IgG1-TLR8 conjugate (antibody, V domains shown, cysteines freed by TCEP reduction may carry the drug-linker; positions not given; cysteines freed by TCEP reduction carry the TLR8 agonist drug-linker; positions not given, also called 56-TLR8) VH: QVQLVQSGAEVKKPGSSVKVSCKASGGTFSGYTMNWVRQAPGQGLEWMGLITPYNAASSYNQKFRGRVTITADKSTSTAYMELSSLRSEDTAVYYCARGGYDGRGFDYWGQGTTVTVSS VL: DIQMTQSPSTLSASVGDRVTITCSASSSVSYMHWYQQKPGKAPKLLIYDTSKLASGVPSRFSGSGSGTEFTLTISSLQPDDFATYYCQQWSKHPLTFGGGTKVEIK    ~0.2 nM
Antibody 55 (VH1-e G27Y, G55A, R66K, V67A, A71V / VKIII-L6) (antibody, V domains shown) VH: QVQLVQSGAEVKKPGSSVKVSCKASGYTFSGYTMNWVRQAPGQGLEWMGLITPYNAASSYNQKFRGKATITVDKSTSTAYMELSSLRSEDTAVYYCARGGYDGRGFDYWGQGTTVTVSS VL: EIVLTQSPATLSLSPGERATLSCSASSSVSYMHWYQQKPGQAPRLLIYDTSKLASGIPARFSGSGSGTDFTLTISSLEPEDFAVYYCQQWSKHPLTFGGGTKVEIK    ~0.08 nM

# next binder below
Q) Fill in: EC50 (read off the curve) of 55-IgG1-TLR8 conjugate (antibody, V domains shown, cysteines freed by TCEP reduction may carry the drug-linker; positions not given; cysteines freed by TCEP reduction carry the TLR8 agonist drug-linker; positions not given, also called 55-TLR8) VH: QVQLVQSGAEVKKPGSSVKVSCKASGYTFSGYTMNWVRQAPGQGLEWMGLITPYNAASSYNQKFRGKATITVDKSTSTAYMELSSLRSEDTAVYYCARGGYDGRGFDYWGQGTTVTVSS VL: EIVLTQSPATLSLSPGERATLSCSASSSVSYMHWYQQKPGQAPRLLIYDTSKLASGIPARFSGSGSGTDFTLTISSLEPEDFAVYYCQQWSKHPLTFGGGTKVEIK is ___
A) ~0.1 nM
